- Procedure Summary: Photophysical properties of dyes in various solvents (absorbance, emission, quantum yield)
- Format: physicochemical
- Condition Details: solvent DMF
Emission λmax by entry:
Property: Emission λmax

| Compound String | Recorded Value |
| --- | --- |
| CN1\C(=C/C=C/C=C2/C(=O)c3ccccc3S2(=O)=O)C(C)(C)c2ccccc21 | 615 nm |
| CCN1\C(=C/C=C/C=C2/C(=O)c3ccccc3S2(=O)=O)Sc2ccccc21 | 619 nm |
| CCN1/C(=C\C=C\C=C2C(=O)N(C)C(=S)N(C)C2=O)Sc2ccccc21 | 613 nm |
| CN1C(=O)C(=C/C=C/C=C2\N(C)c3ccccc3C2(C)C)C(=O)N(C)C1=S | 611 nm |

====

- Procedure Summary: Photophysical properties of dyes in various solvents (absorbance, emission, quantum yield)
- Type: physicochemical
- Condition Details: reactive forms, solvent MeOH
absorption λmax by entry:
Property: absorption λmax

| Compound String | Property | Recorded Value |
| --- | --- | --- |
| O=C(CSCCO)Nc1ccc2c(c1)S\C(=C/C=C/C=C1/C(=O)c3ccccc3S1(=O)=O)N2CCCS(=O)(=O)[O-].[Na+] | absorption λmax | 610 nm |
| CC1(C)\C(=C/C=C/C=C2/C(=O)c3ccccc3S2(=O)=O)N(CCCS(=O)(=O)[O-])c2ccc(NC(=O)CSCCO)cc21.[Na+] | absorption λmax | 601 nm |
| O=C(CI)Nc1ccc2c(c1)S/C(=C/C=C/C=C1/C(=O)c3ccccc3S1(=O)=O)N2CCCS(=O)(=O)[O-].[Na+] | absorption λmax | 610 nm |
| CC1(C)/C(=C/C=C/C=C2/C(=O)c3ccccc3S2(=O)=O)N(CCCS(=O)(=O)[O-])c2ccc(NC(=O)CI)cc21.[Na+] | absorption λmax | 601 nm |
| CN(C(=O)COCC(=O)ON1C(=O)CCC1=O)c1ccc2c(c1)C(C)(C)/C(=C/C=C/C=C1/C(=O)c3ccccc3S1(=O)=O)N2CCCS(=O)(=O)[O-].[Na+] | absorption λmax | 586 nm |

====

Φ (quantum yield of fluorescence) by entry:
- Procedure Summary: Photophysical properties of dyes in various solvents (absorbance, emission, quantum yield)
- Assay type: physicochemical
- Condition Details: solvent MeOH

| Compound String | Φ (quantum yield of fluorescence) |
| --- | --- |
| CN1\C(=C/C=C/C=C2/C(=O)c3ccccc3S2(=O)=O)C(C)(C)c2ccccc21 | 0.08 |
| CN1C(=O)C(=C/C=C/C=C2\N(C)c3ccccc3C2(C)C)C(=O)N(C)C1=S | 0.26 |
| CCN1\C(=C/C=C/C=C2/C(=O)c3ccccc3S2(=O)=O)Sc2ccccc21 | 0.05 |
| CCN1/C(=C\C=C\C=C2C(=O)N(C)C(=S)N(C)C2=O)Sc2ccccc21 | 0.13 |

====

- Procedure Summary: Photophysical properties of dyes in various solvents (absorbance, emission, quantum yield)
- Type: physicochemical
- Condition Details: reactive forms, solvent MeOH
Emission λmax by entry:
Property: Emission λmax (nm)

| Compound String | Unit Abbrev | Recorded Value |
| --- | --- | --- |
| O=C(CSCCO)Nc1ccc2c(c1)S\C(=C/C=C/C=C1/C(=O)c3ccccc3S1(=O)=O)N2CCCS(=O)(=O)[O-].[Na+] | nm | 629 |
| CC1(C)\C(=C/C=C/C=C2/C(=O)c3ccccc3S2(=O)=O)N(CCCS(=O)(=O)[O-])c2ccc(NC(=O)CSCCO)cc21.[Na+] | nm | 621 |
| CN(C(=O)COCC(=O)ON1C(=O)CCC1=O)c1ccc2c(c1)C(C)(C)/C(=C/C=C/C=C1/C(=O)c3ccccc3S1(=O)=O)N2CCCS(=O)(=O)[O-].[Na+] | nm | 620 |
| CC1(C)/C(=C/C=C/C=C2/C(=O)c3ccccc3S2(=O)=O)N(CCCS(=O)(=O)[O-])c2ccc(NC(=O)CI)cc21.[Na+] | nm | 634 |
| O=C(CI)Nc1ccc2c(c1)S/C(=C/C=C/C=C1/C(=O)c3ccccc3S1(=O)=O)N2CCCS(=O)(=O)[O-].[Na+] | nm | 628 |

====

- Procedure Summary: Photophysical properties of dyes in various solvents (absorbance, emission, quantum yield)
- Type: physicochemical
- Condition Details: reactive forms, solvent BuOH

| Compound String | Unit Abbrev | absorption λmax |
| --- | --- | --- |
| O=C(CI)Nc1ccc2c(c1)S/C(=C/C=C/C=C1/C(=O)c3ccccc3S1(=O)=O)N2CCCS(=O)(=O)[O-].[Na+] | nm | 618 |
| CN(C(=O)COCC(=O)ON1C(=O)CCC1=O)c1ccc2c(c1)C(C)(C)/C(=C/C=C/C=C1/C(=O)c3ccccc3S1(=O)=O)N2CCCS(=O)(=O)[O-].[Na+] | nm | 590 |
| CC1(C)\C(=C/C=C/C=C2/C(=O)c3ccccc3S2(=O)=O)N(CCCS(=O)(=O)[O-])c2ccc(NC(=O)CSCCO)cc21.[Na+] | nm | 609 |
| CC1(C)/C(=C/C=C/C=C2/C(=O)c3ccccc3S2(=O)=O)N(CCCS(=O)(=O)[O-])c2ccc(NC(=O)CI)cc21.[Na+] | nm | 607 |

====

- Procedure Summary: Photophysical properties of dyes in various solvents (absorbance, emission, quantum yield)
- Assay type: physicochemical
- Set-up: unit not given here
- Condition Details: reactive forms, solvent BuOH

| Compound | ε × Φ |
| --- | --- |
| CC1(C)/C(=C/C=C/C=C2/C(=O)c3ccccc3S2(=O)=O)N(CCCS(=O)(=O)[O-])c2ccc(NC(=O)CI)cc21.[Na+] [dye 4e] | 9000 |
| CN(C(=O)COCC(=O)ON1C(=O)CCC1=O)c1ccc2c(c1)C(C)(C)/C(=C/C=C/C=C1/C(=O)c3ccccc3S1(=O)=O)N2CCCS(=O)(=O)[O-].[Na+] [dye 4f] | 26000 |
| O=C(CI)Nc1ccc2c(c1)S/C(=C/C=C/C=C1/C(=O)c3ccccc3S1(=O)=O)N2CCCS(=O)(=O)[O-].[Na+] [dye 2e] | 9600 |
| CC1(C)\C(=C/C=C/C=C2/C(=O)c3ccccc3S2(=O)=O)N(CCCS(=O)(=O)[O-])c2ccc(NC(=O)CSCCO)cc21.[Na+] [dye 4g] | 17000 |

====

Emission λmax by entry:
- Procedure Summary: Photophysical properties of dyes in various solvents (absorbance, emission, quantum yield)
- Assay type: physicochemical
- Condition Details: solvent C6H6

| Compound String | Unit Abbrev | Emission λmax |
| --- | --- | --- |
| CCN1/C(=C\C=C\C=C2C(=O)N(C)C(=S)N(C)C2=O)Sc2ccccc21 | nm | 617 |
| CCN1\C(=C/C=C/C=C2/C(=O)c3ccccc3S2(=O)=O)Sc2ccccc21 | nm | 617 |
| CN1C(=O)C(=C/C=C/C=C2\N(C)c3ccccc3C2(C)C)C(=O)N(C)C1=S | nm | 605 |
| CN1\C(=C/C=C/C=C2/C(=O)c3ccccc3S2(=O)=O)C(C)(C)c2ccccc21 | nm | 603 |

====

- Procedure Summary: Photophysical properties of dyes in various solvents (absorbance, emission, quantum yield)
- Format: physicochemical
- Condition Details: solvent OcOH

| Compound String | Emission λmax / nm |
| --- | --- |
| CN1C(=O)C(=C/C=C/C=C2\N(C)c3ccccc3C2(C)C)C(=O)N(C)C1=S | 609 |
| CN1\C(=C/C=C/C=C2/C(=O)c3ccccc3S2(=O)=O)C(C)(C)c2ccccc21 | 617 |
| CCN1/C(=C\C=C\C=C2C(=O)N(C)C(=S)N(C)C2=O)Sc2ccccc21 | 615 |
| CCN1\C(=C/C=C/C=C2/C(=O)c3ccccc3S2(=O)=O)Sc2ccccc21 | 623 |

====

- Procedure Summary: Photophysical properties of dyes in various solvents (absorbance, emission, quantum yield)
- Assay type: physicochemical
- Condition Details: solvent BuOH

| Compound | Emission λmax / nm |
| --- | --- |
| CN1\C(=C/C=C/C=C2/C(=O)c3ccccc3S2(=O)=O)C(C)(C)c2ccccc21 [dye 4a] | 618 |
| CCN1/C(=C\C=C\C=C2C(=O)N(C)C(=S)N(C)C2=O)Sc2ccccc21 [dye 1b] | 613 |
| CCN1\C(=C/C=C/C=C2/C(=O)c3ccccc3S2(=O)=O)Sc2ccccc21 [dye 2a] | 622 |
| CN1C(=O)C(=C/C=C/C=C2\N(C)c3ccccc3C2(C)C)C(=O)N(C)C1=S [dye 3a] | 609 |

====

- Procedure Summary: Dye photo-bleaching under tungsten lamp irradiation
- Assay type: physicochemical
- Condition Details: BuOH
- Description: Photo-bleaching. All samples contained 1 mM dye in a final volume of 10 mL. For nitrogen and oxygen saturation the samples were bubbled with solvent-saturated gas for 30 min. A 90 W halogen tungsten lamp was employed for irradiation, with a fan used for cooling. […] The absorption spectrum of each sample was measured before irradiation and after every 10 h period. […] After 60 h of irradiation the reaction mixture was analyzed by GC-MS for products formed. […]
Property: Absolute rate constant of dye photo-bleaching, kph × 10^6 (s^−1)

| Compound | Recorded Value |
| --- | --- |
| CCN1/C(=C\C=C\C=C2C(=O)N(C)C(=S)N(C)C2=O)Sc2ccccc21 | 5.2 |
| CN1C(=O)C(=C/C=C/C=C2\N(C)c3ccccc3C2(C)C)C(=O)N(C)C1=S | 0.78 |
| CCN1/C(=C/C=C/C=C/C2=[N+](CCCCCC(=O)O)c3ccc(S(=O)(=O)O)cc3C2(C)C)C(C)(C)c2cc(S(=O)(=O)[O-])ccc21 [Cy5, reference compound] | 0.77 |
| CCN1\C(=C/C=C/C=C2/C(=O)c3ccccc3S2(=O)=O)Sc2ccccc21 | 5.2 |
| CN1\C(=C/C=C/C=C2/C(=O)c3ccccc3S2(=O)=O)C(C)(C)c2ccccc21 | 0.65 |
